- System: LXFL 529 NSCLC
- assay-method-text: NCI tumour cell line growth inhibition, 48 h

compound: Cc1ccc(/C=N/NS(=O)(=O)c2ccccc2)cc1C
TGI: > 100 µM
//
compound: C[C@]12CCc3nonc3C1CC[C@@H]1C2CC[C@@]2(C)C1CC[C@@H]2O (stereo partly specified)
TGI: > 100 µM
//
compound: COc1ccc(-c2oc3c(OC)c(OC)c(OC)c(O)c3c(=O)c2OC)cc1O
TGI: > 100 µM
//
compound: COc1ccccc1NC(=O)C1=C(C)NC(C)=C(C(=O)Nc2ccccc2OC)C1c1ccccc1Cl
TGI: > 100 µM
//
compound: COC(=O)/C(=N\NC(N)=O)C(C#N)c1ccccc1 (stereo unspecified)
TGI: > 100 µM
//
compound: C1=CC=C2NCCc3cccc(c3)CCNC3=CC=CC=CC3=NCCCCCCN=C2C=C1
TGI: 23.6 µM
//
compound: O=[N+]([O-])c1cccc(C2=NN(c3ccccc3)C3c4ccccc4OCC23)c1 (stereo unspecified)
TGI: > 100 µM
//
compound: O=Cc1ccccc1CCn1c(=O)c2cc3c(=O)n(CCc4ccccc4C=O)c(=O)c3cc2c1=O
TGI: > 100 µM
//
compound: COc1ccc([Se][Se]c2ccc(OC)cc2OC)c(OC)c1
TGI: 4.64 µM
//
compound: O=C(C=Nc1ccccc1S)c1ccco1
TGI: 15.9 µM
//
compound: C[N+](C)(C)C1CC([N+](C)(C)C)C2c3ccccc3C21 (stereo unspecified)
TGI: > 100 µM

* * *

- Tested on: CCRF-CEM leukemia
- assay-method-text: NCI tumour cell line growth inhibition, 48 h
endpoint-name: TGI

molecule: COc1ccc(C[C@]23CCC(=O)N2CCc2cc(OC)c(O)cc23)cc1O
test-value: > 100 µM

molecule: CNC(=O)N1CN(c2ccccc2)C2(CCN(Cc3ccccc3)CC2)C1=O
test-value: > 100 µM

molecule: CSc1nc(-c2ccccc2)nc(C(C#N)C#N)n1
test-value: > 100 µM

molecule: COc1ccc(-c2cc(=O)c3cc(Cl)ccc3[nH]2)cc1
test-value: > 100 µM

molecule: O=C1c2cn[nH]c2N=C(Nc2ccccc2)C1N=Cc1ccc([N+](=O)[O-])cc1 (stereo not drawn)
test-value: > 10 µM

molecule: Cc1c(C(=O)Nc2ccccc2)nnn1-c1ccnc2cc(C(F)(F)F)ccc12
test-value: 81.5 µM

molecule: CC(=O)NCc1c(C(N)=O)ncn1Cc1ccccc1
test-value: > 100 µM

molecule: CCCCCCCC(=O)OCC1OC(n2cc(F)c(=O)[nH]c2=O)C(N)C(O)C1O (stereo not drawn)
test-value: > 100 µM

* * *

- Test system: OVCAR-3 ovarian
- assay-method-text: NCI tumour cell line growth inhibition, 48 h

molecule: C/C=C\C(CC(=O)NCCC1CN(C(=O)OCc2ccccc2)c2ccccc21)CC(=O)OC (centres undefined)
TGI: > 100 µM
--
molecule: COC(=O)[C@@H]1C[C@]2(Br)c3ccccc3N(S(=O)(=O)c3ccccc3)[C@@H]2N1C(=O)OC
TGI: > 100 µM
--
molecule: CC(=O)OCCCCN1C(=O)CSc2ccccc21
TGI: > 100 µM
--
molecule: Nc1ncnc2c1ncn2[C@@H]1O[C@H](COP(=O)(O)OP(=O)(O)OC[C@H]2O[C@@H](OCCCO)[C@H](O)[C@@H]2O)[C@@H](O)[C@H]1O
TGI: > 100 µM
